Answer each item with its documented GI50.
System: MOLT-4 leukemia
Experiment: NCI tumour cell line growth inhibition, 48 h

GI50 in this record for O=C1C(C(Nc2ccccc2)c2ccccc2)=C([O-])c2ccccc21.O=C1C(C(Nc2ccccc2)c2ccccc2)=C([O-])c2ccccc21.[Ni+2] (stereo not given) : 3.71 µM

GI50 in this record for COc1ccc(-c2nc(S(=O)(=O)c3ccccc3)c(S(=O)CC(=O)N3CCC(C)CC3)o2)cc1 (stereo not given) : 2.09 µM

GI50 in this record for CC(=O)Oc1cn(-c2ccc(Cl)cc2)nc1C1=NN(C(C)=O)C(c2ccc(F)cc2F)O1 (stereo not given) : 18.5 µM

GI50 in this record for O=C(c1ccccc1)N(C(=S)NCCc1ccc(Cl)cc1)c1ccc(Cl)cc1 : 3.14 µM

GI50 in this record for COc1cc(O)c2c3c(ccnc13)-c1ccccc1N2 : 21.2 µM

----------
System: OVCAR-3 ovarian
Assay: NCI tumour cell line growth inhibition, 48 h
readout_kind: TGI

// returns TGI for COc1cc([C@@H]2c3cc4c(cc3[C@@H](NC(=O)c3cccc(C#N)c3)C3COC(=O)[C@@H]32)OCO4)cc(OC)c1O (stereo partly specified) with OVCAR-3 ovarian; value = 8.74 µM

// returns TGI for c1ccc(CNc2ccc3[nH]c4cnccc4c3c2)cc1 with OVCAR-3 ovarian; value = 27 µM

// returns TGI for C=CCN(c1cc(OCc2ccccc2)c2c(c(C)cn2S(=O)(=O)c2ccc([N+](=O)[O-])cc2)c1[N+](=O)[O-])S(C)(=O)=O with OVCAR-3 ovarian; value = > 100 µM

// returns TGI for CC(=O)/C(N=Nc1ccc(-n2c(C)nc3ccccc3c2=O)cc1)=C(/C)O with OVCAR-3 ovarian; value = > 100 µM

// returns TGI for Cc1ccc(NN=NCCCCN=NNc2ccc(C)cc2)cc1 with OVCAR-3 ovarian; value = > 100 µM

// returns TGI for COc1ccc(N2C(=O)C3c4[nH]c5cccc(Cl)c5c4C4CCC(C(C)(C)C)CC4C3C2=O)cc1 (stereo unspecified) with OVCAR-3 ovarian; value = > 100 µM

// returns TGI for Cn1c(CCC2(C)Cc3ccccc3C(=O)O2)cc2ccccc2c1=O (stereo unspecified) with OVCAR-3 ovarian; value = 54 µM

// returns TGI for CC(C)NC(=O)OCc1c(COC(=O)NC(C)C)n(C)c2c1ccc1ccsc12 with OVCAR-3 ovarian; value = 40 µM

// returns TGI for Cc1nc2ccccc2c(=O)n1NC(=O)c1ccc(N)cc1 with OVCAR-3 ovarian; value = > 100 µM

// returns TGI for C[C@@H]1OC(=O)C[C@H]2CC(=O)N(CCC3CN(C(=O)c4ccccc4)c4ccccc43)C[C@@H]21 (stereo partly specified) with OVCAR-3 ovarian; value = > 100 µM

// returns TGI for CC(C)N(C(=O)C12C3(C(=O)OC(C)(C)C)C4C5(C#N)C3C1(C(=O)OC(C)(C)C)C5C42C(=O)OC(C)(C)C)C(C)C (stereo unspecified) with OVCAR-3 ovarian; value = > 100 µM

----------
Tested on: MALME-3M melanoma
Assay: NCI tumour cell line growth inhibition, 48 h
Criterion: TGI meeting or surpassing 30 µM. Met: y. Not met: n.

Ask: Does C/C=C/C1(C)/C(=N\O)C(C)(CCC)C(=O)N1O (centres undefined) have a reported TGI of at least 30 µM?
Result: y

Ask: Does COc1cc(S(=O)(=O)Nc2ccc(-c3csc(N4C(=O)C(C)SC4c4cccc(Oc5ccccc5)c4)n3)cc2)ccc1Cl (centres undefined) have a reported TGI of at least 30 µM?
Result: y

Ask: Does COc1ccc(SS(=O)(=O)c2ccc(OC)cc2)cc1 have a reported TGI of at least 30 µM?
Result: y

Ask: Does CCOC1CCC2C(CCC(/C=C/c3ccc(O)c4ncccc34)N2C)C1 (centres undefined) have a reported TGI of at least 30 µM?
Result: y

Ask: Does Cn1cc(NC(=O)c2cc(NC(=O)CCCCCCCCC(=O)Nc3cc(C(=O)Nc4cc(C(=O)NCCC(N)N)n(C)c4)n(C)c3)cn2C)cc1C(=O)NCCC(=N)N have a reported TGI of at least 30 µM?
Result: n

Ask: Does Nc1c(N2CCCCC2)c(=O)nc2[nH]/c(=C\c3ccco3)c(=O)n12 have a reported TGI of at least 30 µM?
Result: y

Ask: Does CC(=O)O[C@@H]1C(C2CCCCC2)C=[N+]([O-])O[C@@H]1OC1CCCC1(c1ccccc1)c1ccccc1 (some centres undefined) have a reported TGI of at least 30 µM?
Result: n

Ask: Does Cc1cc2nc(CS)[nH]c2cc1C have a reported TGI of at least 30 µM?
Result: y

Ask: Does CCOc1c(OC)cc(C2c3cc4c(c(OCC)c3CC3COC(=O)C32)OCO4)cc1OC (centres undefined) have a reported TGI of at least 30 µM?
Result: y

Ask: Does COC(=O)C1=C(C(=O)OC)C2(C)OC1C(=O)C21CC1 (centres undefined) have a reported TGI of at least 30 µM?
Result: y

Ask: Does COc1ccc2c(c1)c(-c1nonc1-c1cn(C)c3ccccc13)cn2C have a reported TGI of at least 30 µM?
Result: y

Ask: Does COc1ccc(NC(C)=O)cc1N1C(=O)/C(=C\c2cccc(Oc3ccccc3)c2)S(=O)(=O)C1c1ccccc1 (centres undefined) have a reported TGI of at least 30 µM?
Result: y

Ask: Does CN(C)c1ccc2nc3ccc(=[N+](C)C)c([N+](=O)[O-])c-3sc2c1 have a reported TGI of at least 30 µM?
Result: n
